Values were extracted from ChEMBL document CHEMBL1201862.

tested on: SN12C; test: NCI tumour cell line growth inhibition, 48 h
Activity calls are given as the source filed them. No stated cut-off is given here; in the data, active = GI50 up to about 1.1 µM and inactive = higher. Where a SMILES comes first, the peptide text is derived from it. The star is where a group is joined. Boc = CC(C)(C)OC(=O)*
Answer each item with its documented GI50.

Q: Look up and report measured GI50 (SN12C) for the following compound: COC(=O)C(C(=O)C(=O)Nc1nnc(S)[nH]1)c1csc(N)n1 (stereo not given)
A: > 100 µM (inactive)

Q: Print SN12C GI50 for CC(NC(=O)C(NC(=O)OC(C)(C)C)C(C)C)C(=O)NCC(=O)O (stereo not drawn) (Boc-Val-Ala-Gly-OH; configuration not given here) .
A: > 100 µM (inactive)

Q: Print SN12C GI50 for CC12CCC(CC(=O)/C1=C(/Br)I)C2(C)C (stereo not given) .
A: 15.8 µM (inactive)

Q: Check SN12C data and give GI50 for `COc1cc2ccc3c4cc(OC)c(OC(C)C)cc4cnc3c2cc1OC` .
A: > 100 µM (inactive)

Q: Please report GI50 with SN12C for item O=C1OC(c2cccc(C(F)(F)F)c2)c2ccc3ccccc3c21 (stereo not given) .
A: > 10 µM (inactive)
